Measured log2 fold change of degron read counts of individual entries
# subject-of-test: T1, CRBN, Q96SW2
# T1 chain: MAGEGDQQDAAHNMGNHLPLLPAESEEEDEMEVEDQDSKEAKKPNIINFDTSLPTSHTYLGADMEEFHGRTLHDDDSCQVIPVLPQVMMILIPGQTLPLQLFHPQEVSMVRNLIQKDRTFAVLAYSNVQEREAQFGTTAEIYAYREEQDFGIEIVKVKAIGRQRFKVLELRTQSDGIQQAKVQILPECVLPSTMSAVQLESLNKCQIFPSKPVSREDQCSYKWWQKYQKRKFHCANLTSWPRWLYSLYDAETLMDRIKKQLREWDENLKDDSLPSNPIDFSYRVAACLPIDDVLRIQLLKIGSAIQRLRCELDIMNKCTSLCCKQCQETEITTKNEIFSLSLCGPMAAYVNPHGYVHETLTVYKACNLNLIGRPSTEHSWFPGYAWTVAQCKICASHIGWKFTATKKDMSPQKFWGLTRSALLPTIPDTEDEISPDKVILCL
# assay-summary: log2 fold change of degron read counts, EGFP-low vs EGFP+ sorted cells (limma voom), compound-induced degradation; higher = more compound-induced degradation of the degron-EGFP fusion; degrons are variants of IKZF1/3 zinc finger 2; compound dose not given here;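 further: pooled lentiviral library of zinc finger degron-EGFP fusions in mCherry-positive Jurkat cells, FACS-sorted after compound exposure, with degron abundance counted by next-generation sequencing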
# experimental-context: Jurkat; 18 h; compound: thalidomide
Over roughly 8,300 sequences, “log2 fold change of degron read counts, EGFP-low vs EGFP+ sorted cells (limma voom), compound-induced degradation” has its median near -1.1; the highest 2% begin near 3.2. For the sample, the highest values were picked, then their nearest neighbours and some sequences at random.

ordered-residues	log2 fold change of degron read counts
FSCEICGRSFTQKGNLLRHIKL [46F_47S_49E_50I_52G_53R_54S_55F_67L_, Q9UKT9]	-1.71
FACEVCGAKFTQKGNLLRHIKL [46F_47A_49E_50V_52G_53A_54K_55F_67L_, Q9UKT9]	0.889
FFCDQCGAAFTQKGNLLRHIKL [46F_47F_49D_50Q_52G_53A_54A_55F_67L_, Q9UKT9]	-2.46
FWCEVCGAKFTQKGNLLRHIKL [46F_47W_49E_50V_52G_53A_54K_55F_67L_, Q9UKT9]	1.54
FVCEICGHPFTQKGNLLRHIKL [46F_47V_49E_50I_52G_53H_54P_55F_67L_, Q9UKT9]	-0.105
FKCEVCGAKFTQKGNLLRHIKL [46F_47K_49E_50V_52G_53A_54K_55F_67L_, Q9UKT9]	-1.57
FECEVCGAKFTQKGNLLRHIKL [46F_47E_49E_50V_52G_53A_54K_55F_67L_, Q9UKT9]	2.59
FGCNQCGRQFTQKGNLLRHIKL [46F_47G_49N_50Q_52G_53R_54Q_55F_67L_, Q9UKT9]	-1.99
FFCNQCGHGFTQKGNLLRHIKL [46F_47F_49N_50Q_52G_53H_54G_55F_67L_, Q9UKT9]	-2.52
FCCSVCGHKFTQKGNLLRHIKL [46F_47C_49S_50V_52G_53H_54K_55F_67L_, Q9UKT9]	-2.04
FMCEVCGAKFTQKGNLLRHIKL [46F_47M_49E_50V_52G_53A_54K_55F_67L_, Q9UKT9]	0.604
FRCEVCGAKFTQKGNLLRHIKL [46F_47R_49E_50V_52G_53A_54K_55F_67L_, Q9UKT9]	1.09
FKCEVCGAHFTQKGNLLRHIKL [46F_47K_49E_50V_52G_53A_54H_55F_67L_, Q9UKT9]	-1.68
FGCEVCGAKFTQKGNLLRHIKL [46F_47G_49E_50V_52G_53A_54K_55F_67L_, Q9UKT9]	1.16
FWCEQCGAIFTQKGNLLRHIKL [46F_47W_49E_50Q_52G_53A_54I_55F_67L_, Q9UKT9]	-1.07

// data source = the supplement of paper PMC12645437
